Hello, the source for this data is the supplement of paper PMC10126150, in case you need it.

Would you kindly list switch fluorescence ratio for each of these sequences?
# Test system: ATP;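 note: ATP exposure 15 min at 22 °C before imaging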
# ASSAY TEXT: switch fluorescence ratio, 500 uM ATP over buffer (Cy3 cluster intensity, sum of 5 cycles each) (fold (ratio)); higher = stronger signal-on switching upon ATP binding; sequences stand for … in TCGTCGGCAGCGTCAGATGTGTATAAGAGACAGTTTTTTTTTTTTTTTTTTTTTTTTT…TC
# CONDITIONS USED: aptamer strand: ATP DNA aptamer (quencher-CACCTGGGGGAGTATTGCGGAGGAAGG + anchor), 100 nM annealed; ATP concentration: 500 uM
Response field accepts a number only; no unit should be typed.

According to the records, this sequence "TTTAAAAAAA" displays switch fluorescence ratio of 1.02

According to the records, this sequence "CAAATAGTGG" displays switch fluorescence ratio of 0.943

According to the records, this sequence "GTGGCGCGGA" displays switch fluorescence ratio of 0.959

According to the records, this sequence "CGGGGTTGAC" displays switch fluorescence ratio of 0.992

According to the records, this sequence "CCGCACTAAG" displays switch fluorescence ratio of 3.94

According to the records, this sequence "ATTAGGACGT" displays switch fluorescence ratio of 0.984

According to the records, this sequence "TATGCCCAGA" displays switch fluorescence ratio of 1.03

According to the records, this sequence "AACTCAAGGG" displays switch fluorescence ratio of 1.01

According to the records, this sequence "CGTCTAAGTG" displays switch fluorescence ratio of 0.99

According to the records, this sequence "TAGTGTCGGA" displays switch fluorescence ratio of 0.991

According to the records, this sequence "ATGAGGTCTC" displays switch fluorescence ratio of 0.98

According to the records, this sequence "GCGGATCAGC" displays switch fluorescence ratio of 1.01

According to the records, this sequence "CCAAAGGGAT" displays switch fluorescence ratio of 1.28

According to the records, this sequence "TATAATTGCG" displays switch fluorescence ratio of 0.977

According to the records, this sequence "TAAAAGGTAC" displays switch fluorescence ratio of 1.07

According to the records, this sequence "GGAGAGATTT" displays switch fluorescence ratio of 1.01

According to the records, this sequence "ATCGGTTGTG" displays switch fluorescence ratio of 1.01

According to the records, this sequence "AAGCCGGGTC" displays switch fluorescence ratio of 0.991

According to the records, this sequence "AAGTTTGACC" displays switch fluorescence ratio of 0.978

According to the records, this sequence "GTGGAATATT" displays switch fluorescence ratio of 1.04

According to the records, this sequence "ATCAAAGGGA" displays switch fluorescence ratio of 0.976

According to the records, this sequence "CTGATTATGT" displays switch fluorescence ratio of 1.02

According to the records, this sequence "GCCAGTCTGG" displays switch fluorescence ratio of 0.987

According to the records, this sequence "TGGTTCGGGG" displays switch fluorescence ratio of 0.96

According to the records, this sequence "AATTCCTACG" displays switch fluorescence ratio of 2.57

According to the records, this sequence "ACGACTTTTT" displays switch fluorescence ratio of 1.03

According to the records, this sequence "GGAACTTTTA" displays switch fluorescence ratio of 1.01

According to the records, this sequence "TCGCTTGTTG" displays switch fluorescence ratio of 1.03

According to the records, this sequence "TTTATTTAAC" displays switch fluorescence ratio of 1.05

According to the records, this sequence "CCGCCGGGGT" displays switch fluorescence ratio of 1.91

According to the records, this sequence "GGCTTTGGAC" displays switch fluorescence ratio of 0.994

According to the records, this sequence "TATTCAGGGA" displays switch fluorescence ratio of 1.02

According to the records, this sequence "CCGTAATCAG" displays switch fluorescence ratio of 1.98

According to the records, this sequence "TATAGTGCTC" displays switch fluorescence ratio of 0.986

According to the records, this sequence "TTAAAGGTAA" displays switch fluorescence ratio of 1.02

According to the records, this sequence "GCTTTTCGTA" displays switch fluorescence ratio of 1

According to the records, this sequence "ATCCAGGTAG" displays switch fluorescence ratio of 1.75

According to the records, this sequence "AGGAAATTTT" displays switch fluorescence ratio of 1.01

According to the records, this sequence "TGAGGTAGCG" displays switch fluorescence ratio of 0.981

According to the records, this sequence "ATGGCAGGCA" displays switch fluorescence ratio of 0.993

According to the records, this sequence "AAGATGTAGG" displays switch fluorescence ratio of 1.03

According to the records, this sequence "CGGGTATTTC" displays switch fluorescence ratio of 1.01

According to the records, this sequence "AATATGATGT" displays switch fluorescence ratio of 1.05

According to the records, this sequence "CTGGCTGGTG" displays switch fluorescence ratio of 1.1

According to the records, this sequence "GCAGCTTTTA" displays switch fluorescence ratio of 1.09

According to the records, this sequence "TTTTGTTCCT" displays switch fluorescence ratio of 1.02

According to the records, this sequence "TGGGGTGCTC" displays switch fluorescence ratio of 0.998

According to the records, this sequence "TTGAAAAAAT" displays switch fluorescence ratio of 1.06

According to the records, this sequence "ATAGAGGCTG" displays switch fluorescence ratio of 1.04

According to the records, this sequence "GGTCGGGGGC" displays switch fluorescence ratio of 1.02

According to the records, this sequence "TGTAGAGGGC" displays switch fluorescence ratio of 1.04

According to the records, this sequence "TAGGAGGTAT" displays switch fluorescence ratio of 1.01

According to the records, this sequence "ATGTCTTGTG" displays switch fluorescence ratio of 0.985

According to the records, this sequence "TAGGCTAGGT" displays switch fluorescence ratio of 1.02

According to the records, this sequence "AAGCATTAGT" displays switch fluorescence ratio of 1.05

According to the records, this sequence "CGTTATAGTC" displays switch fluorescence ratio of 1.02

According to the records, this sequence "ATCTATCTGT" displays switch fluorescence ratio of 1

According to the records, this sequence "ATGATCAGTG" displays switch fluorescence ratio of 0.98

According to the records, this sequence "TCGGTTTAGG" displays switch fluorescence ratio of 1.01

According to the records, this sequence "TGGTACATTA" displays switch fluorescence ratio of 1.34

According to the records, this sequence "TCAACGTCAG" displays switch fluorescence ratio of 0.987

According to the records, this sequence "GAAGAGCGGG" displays switch fluorescence ratio of 0.978

According to the records, this sequence "TTATTTTAGC" displays switch fluorescence ratio of 0.976

According to the records, this sequence "TGGTGACTGA" displays switch fluorescence ratio of 0.981

According to the records, this sequence "AAAGTCGCGT" displays switch fluorescence ratio of 1

According to the records, this sequence "GCAAGCAAGA" displays switch fluorescence ratio of 1.18

According to the records, this sequence "TCGGCTATGG" displays switch fluorescence ratio of 1.01

According to the records, this sequence "GTGGGACGGG" displays switch fluorescence ratio of 1.03

According to the records, this sequence "TTAAGTACGG" displays switch fluorescence ratio of 1.3

According to the records, this sequence "ATATAGCACG" displays switch fluorescence ratio of 1.02

According to the records, this sequence "ACGAACAGTT" displays switch fluorescence ratio of 1.15

According to the records, this sequence "AAGAGGGGAC" displays switch fluorescence ratio of 0.996

According to the records, this sequence "GAAAAAGCAA" displays switch fluorescence ratio of 1.14

###

# Test system: ATP;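 note: ATP exposure 15 min at 22 °C before imaging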
# ASSAY TEXT: switch fluorescence ratio, 500 uM ATP over buffer (Cy3 cluster intensity, sum of 5 cycles each) (fold (ratio)); higher = stronger signal-on switching upon ATP binding; sequences stand for … in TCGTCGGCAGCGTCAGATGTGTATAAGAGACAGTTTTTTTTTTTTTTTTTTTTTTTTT…TC
# CONDITIONS USED: aptamer strand: ATP DNA aptamer (quencher-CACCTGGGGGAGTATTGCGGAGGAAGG + anchor), 100 nM annealed; ATP concentration: 500 uM
METRIC NAME: switch fluorescence ratio
Response field accepts a number only; no unit should be typed.

According to the records, this sequence "TTAGGGAATT" displays switch fluorescence ratio of 0.989

According to the records, this sequence "GGCGGGGTGC" displays switch fluorescence ratio of 1.02

According to the records, this sequence "CAATAAAACA" displays switch fluorescence ratio of 0.972

According to the records, this sequence "AGCGGTTCAC" displays switch fluorescence ratio of 1.02

According to the records, this sequence "TTGAGTTAAA" displays switch fluorescence ratio of 0.991

According to the records, this sequence "CAGGGAGCTT" displays switch fluorescence ratio of 1.01

According to the records, this sequence "GGAAACTAGG" displays switch fluorescence ratio of 1.02

According to the records, this sequence "ATAAAGTGGA" displays switch fluorescence ratio of 0.984

According to the records, this sequence "GGGGGTGAAC" displays switch fluorescence ratio of 0.98

According to the records, this sequence "TTAGAGGGA" displays switch fluorescence ratio of 1

According to the records, this sequence "AGTTCGTAAA" displays switch fluorescence ratio of 1.02

According to the records, this sequence "AAGAGACGGG" displays switch fluorescence ratio of 1.01
